// data source = the supplement of paper PMC9170038

Tested on: K4 kissing-loop RNA reporter;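 note: bound reporter read as fluorescence of individual clusters on recovered sequencing chips by microscopy, with normalized cluster intensities fitted with a binding model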
Test: apparent KD of K4 kissing-loop reporter; higher = weaker reporter binding
Conditions: Eterna round: R107; input ligand: theophylline 20 uM
property.label: apparent KD of K4 kissing-loop reporter (nM)

{"columns": ["residue.codes", "target.under.test", "measured.result"],
 "data": [
  ["AGUGCACUGGCAGGAUAUGUACAGUGAUGUUGUGUAUGUCAGCAAGUCAAAGACUUGCUCUUCUGUGCAGAAGGGCCUGUGUACA [#05 K4 FMN B Exclusion]", "K4 kissing-loop RNA reporter", 532],
  ["UAAACCAAAUUACGUCACCUUGUCCAAUCUAAGGAUAUGUGAUUCCACAGAAGGUAGCCACGGGAGUGAUGUUCGCGUUAAGGCG [theeternabot_exclusion_KL_FMN_A_31]", "K4 kissing-loop RNA reporter", 460],
  ["GAUUUAGAGGCGGCCGCCACUAGUGAUGUUAGUGAUGUUUGAUACGGAAUAUAUCUGCGAGUAGAUAGGACCGGGCCAGAUGGAG [rttrbmullin]", "K4 kissing-loop RNA reporter", 184],
  ["ACCAUCAAAGAUGGCCAGGACUCCGCUGAUACCAGAGUGAAAACACUCCCUUGGCAGCAGGUGAGUGAUGUUCACGAGUCCUGGA [Omel KL Theo A SS B v6]", "K4 kissing-loop RNA reporter", 448],
  ["GGUUCGAGUGAUGUUCGGGUCGAUUGGGAAGGAGCGCCCGGAAGGGCAGGUAGGUCGCCCGGGCCGCGCGGGAAACCGCGCGUCC [#2 Same State - Arginine A Attempt #7 (HarryS)]", "K4 kissing-loop RNA reporter", 147]
]}
